- procedure-summary: Induction of hemolysis in Sprague-Dawley rat erythrocytes incubated at 37 degC for 60 mins by spectrophotometry
- Format: cell-based, Erythrocyte
- details: Sprague-Dawley, erythrocytes, read-out: HD50
Non-standard residues stand in square brackets, D forms with d. Residues, ends and D or L forms follow the SMILES beside them. Nspe = C[C@H](NCC(=O)O)c1ccccc1; Nlys = NCCCCNCC(=O)O
assay-metric: HC50 at 1 h (µM)

compound: C[C@@H](c1ccccc1)N(CC(N)=O)C(=O)CN(C(=O)CN(CCCCN)C(=O)CN(C(=O)CN(C(=O)CN(CCCCN)C(=O)CN(C(=O)CN(C(=O)CN(CCCCN)C(=O)CN(C(=O)CN(C(=O)CNCCCCN)[C@@H](C)c1ccccc1)[C@@H](C)c1ccccc1)[C@@H](C)c1ccccc1)[C@@H](C)c1ccccc1)[C@@H](C)c1ccccc1)[C@@H](C)c1ccccc1)[C@@H](C)c1ccccc1 (H-[Nlys][Nspe][Nspe][Nlys][Nspe][Nspe][Nlys][Nspe][Nspe][Nlys][Nspe][Nspe]-NH2)
assay-metric: HC50 at 1 h
unit-abbreviation: µM
recorded-measurement: 63.4

====

Entries annotated with measured HD10
- Tested on: Erythrocyte
- procedure-summary: Induction of hemolysis in Sprague-Dawley rat erythrocytes incubated at 37 degC for 60 mins by spectrophotometry
- Assay type: cell-based
- details: erythrocyte, 1 h
Non-standard residues stand in square brackets, D forms with d. Residues, ends and D or L forms follow the SMILES beside them. Nspe = C[C@H](NCC(=O)O)c1ccccc1; Nlys = NCCCCNCC(=O)O
assay-metric: HD10

molecule: C[C@@H](c1ccc(F)cc1)N(CC(N)=O)C(=O)CN(C(=O)CN(CCCCN)C(=O)CN(C(=O)CN(C(=O)CN(CCCCN)C(=O)CN(C(=O)CN(C(=O)CN(CCCCN)C(=O)CN(C(=O)CN(C(=O)CNCCCCN)[C@@H](C)c1ccc(F)cc1)[C@@H](C)c1ccc(F)cc1)[C@@H](C)c1ccc(F)cc1)[C@@H](C)c1ccc(F)cc1)[C@@H](C)c1ccc(F)cc1)[C@@H](C)c1ccc(F)cc1)[C@@H](C)c1ccc(F)cc1
recorded-measurement: < 6.25 µM
--
molecule: Cc1ccc([C@H](C)N(CC(N)=O)C(=O)CN(C(=O)CN(CCCCN)C(=O)CN(C(=O)CN(C(=O)CN(CCCCN)C(=O)CN(C(=O)CN(C(=O)CN(CCCCN)C(=O)CN(C(=O)CN(C(=O)CNCCCCN)[C@@H](C)c2ccc(C)cc2)[C@@H](C)c2ccc(C)cc2)[C@@H](C)c2ccc(C)cc2)[C@@H](C)c2ccc(C)cc2)[C@@H](C)c2ccc(C)cc2)[C@@H](C)c2ccc(C)cc2)[C@@H](C)c2ccc(C)cc2)cc1
recorded-measurement: < 6.25 µM
--
molecule: C[C@@H](c1ccc(Cl)cc1)N(CC(N)=O)C(=O)CN(C(=O)CN(CCCCN)C(=O)CN(C(=O)CN(C(=O)CN(CCCCN)C(=O)CN(C(=O)CN(C(=O)CN(CCCCN)C(=O)CN(C(=O)CN(C(=O)CNCCCCN)[C@@H](C)c1ccc(Cl)cc1)[C@@H](C)c1ccc(Cl)cc1)[C@@H](C)c1ccc(Cl)cc1)[C@@H](C)c1ccc(Cl)cc1)[C@@H](C)c1ccc(Cl)cc1)[C@@H](C)c1ccc(Cl)cc1)[C@@H](C)c1ccc(Cl)cc1
recorded-measurement: < 6.25 µM
--
molecule: C[C@@H](c1ccccc1)N(CC(=O)N(CCCCN)CC(=O)N(CC(=O)N(CC(=O)N(CCCCN)CC(=O)N(CC(=O)N(CC(=O)N(CCCCN)CC(N)=O)[C@@H](C)c1ccccc1)[C@@H](C)c1ccccc1)[C@@H](C)c1ccccc1)[C@@H](C)c1ccccc1)C(=O)CN(C(=O)CNCCCCN)[C@@H](C)c1ccccc1 (H-[Nlys][Nspe][Nspe][Nlys][Nspe][Nspe][Nlys][Nspe][Nspe][Nlys]-NH2)
recorded-measurement: > 200 µM
